Test system: IGROV1 ovarian
protocol.notes: NCI-60 one-dose screen, 48 h
experimental.parameters: 10 µM unless noted
About 83,000 compounds went through this panel and 20% of them were active in at least one assay; those are over-represented in the sample as a whole. Activity calls are given as the source filed them. Rule for the calls: active = growth percent below 10; inactive = the rest.
Outcomes: TRUE (active), FALSE (inactive)

# molecule, group
rows = [
    ("COc1ccc2c(c1)c(-c1cc(N)n3nc(-c4c[nH]c5ccccc45)cc3n1)cn2C", "TRUE"),
    ("COC(=O)c1ccc(-c2c(-c3ccccc3)c(F)c3oc(C(=O)OC)c(N)c3c2-c2ccccc2)cc1", "FALSE"),
    ("CCCCCCCCc1cccc(CC(=O)Nc2ccc(C)cc2C(=O)O)c1", "FALSE"),
    ("Nc1nnc(-c2cncc(Br)c2)c(-c2c[nH]c3ccc(Br)cc23)n1", "FALSE"),
    ("O=C1Nc2cc(-c3ccc(NS(=O)(=O)c4ccc(F)c(Cl)c4)cc3)ccc2/C1=C/c1ccc[nH]1", "FALSE"),
    ("CN(C)c1nc(NCCNS(=O)(=O)c2ccc(C3=Nc4c(N)nc(N)nc4NC(c4ccc(C(F)(F)F)cc4)C3)cc2)nc(N2CCOCC2)n1 (centres undefined)", "FALSE"),
    ("COc1cc(/C=C/C(=O)c2cnn(-c3cc(=O)[nH]c4ccc(Br)cc34)c2C)cc(OC)c1OC", "TRUE"),
    ("O=C(Cn1c(-c2ccccc2)nc2ccccc21)N=Nc1c(O)[nH]c2ccc(Br)cc12", "TRUE"),
    ("COc1sc(/C=N/NC(=O)c2[nH]c3ccc(Br)cc3c2-c2ccccc2)cc1Cl", "TRUE"),
]

* * *

Test system: HCC-2998 colon
protocol.notes: NCI-60 one-dose screen, 48 h
experimental.parameters: 10 µM unless noted
Procedure: Growth inhibition of the HCC-2998 human tumor cell line is measured as a screen for anti-cancer activity. Cells are grown in 96 well plates and exposed to the test compound for 48 hours. Compounds are tested at a single concentration, which is 10^-5 M for most compounds. The reported endpoint is percent growth (GI% or GIPRCNT), where numbers from 0 - 100% represent growth inhibition, and numbers from -100% - 0 represent cell death. For example, a value of 40 represents 60% growth inhibition. […]
The panel holds about 83,000 compounds, 20% with a hit somewhere; the sample as a whole holds those more often. Active and inactive are the calls of the source. Rule for the calls: active = growth percent below 10; inactive = the rest.
Outcomes: true (1) for active, false (0) for inactive

# molecule, group
records = [
    ("COc1cc(CNC(=O)C[C@H](C)CCC=C(C)C)ccc1OCc1cn(-c2ccccc2F)nn1", "false (0)"),
    ("CCCCCCCCCc1ccc(C(=O)Nc2cc(C)ccc2C(=O)OC)cc1", "false (0)"),
    ("CN(C)c1nc(NCCNS(=O)(=O)c2ccc(C(=O)/C=C/c3ccccc3)cc2)nc(N2CCOCC2)n1", "false (0)"),
    ("CCN1C(=O)N(CC)C2NNC(Sc3c(C(=O)O)c4ccccc4n(CCC(C)C)c3=O)=NC21 (centres undefined)", "true (1)"),
    ("Cc1ccc(C2CC(c3ccc(NC(=O)Nc4ccccc4)cc3)=NN2c2ccc(S(C)(=O)=O)cc2)cc1 (centres undefined)", "true (1)"),
    ("O=C1NC(=S)/C(=C/c2cn(-c3ccccc3)nc2-c2ccccc2)S1", "false (0)"),
    ("COc1cc(C2CC(c3ccc(F)cc3)=Nc3c(N)nc(N)nc3N2)ccc1Oc1nc(Nc2ccc(F)cc2)nc(N(C)C)n1 (centres undefined)", "false (0)"),
    ("Clc1ccc2c(NCCNC34CC5CC(CC(C5)C3)C4)ccnc2c1", "true (1)"),
    ("COc1ccc(S(=O)(=O)Nc2ccc(-c3ccc4c(c3)NC(=O)/C4=C\\c3ccc[nH]3)cc2)cc1OC", "false (0)"),
    ("O=C1Nc2cc(-c3ccc(NS(=O)(=O)c4ccc([N+](=O)[O-])cc4)cc3)ccc2/C1=C/c1ccc[nH]1", "false (0)"),
    ("Cc1nc(N)ncc1-c1ccc2ncnc(N3CCc4cc(F)c(Cl)cc43)c2c1", "false (0)"),
    ("CCCSc1nnc(-c2c(C)nc3sccn23)o1", "false (0)"),
    ("COC(=O)c1ccc(-c2c(-c3ccccc3)c(F)c3oc(C(=O)OC)c(N)c3c2-c2ccccc2)cc1", "false (0)"),
    ("CCOc1ccccc1NC(=O)N/C(N)=N/c1nc2ccccc2s1", "false (0)"),
    ("COc1ccc(-c2nc3ccccc3n2CC(=O)N=Nc2c(O)[nH]c3ccc(OC)cc23)cc1", "false (0)"),
    ("COc1ccc(N=Nc2c(N)nn3c(-c4ccc(F)cc4)ccnc23)cc1", "false (0)"),
    ("CCOC(=O)c1ccc(NC(=S)NC(=O)c2ccc(NC(=O)C(C)C)cc2OC)cc1", "false (0)"),
    ("COc1ccc(NC(=O)Cn2c(/C=C/c3cccc(Br)c3)nc3ccccc3c2=O)cc1", "false (0)"),
    ("Cc1ccccc1NC(=O)c1cccc(NC(=O)CCl)c1", "false (0)"),
    ("COc1cccc(-c2ccc(/C=N/NC(=O)c3[nH]c4ccc(Br)cc4c3-c3ccccc3)s2)c1", "true (1)"),
    ("CS(=O)(=O)Nc1cc(-c2ccc3ncnc(Nc4ccc(OCc5cccnc5)c(Cl)c4)c3c2)cnc1Cl", "true (1)"),
    ("CCCCCCCCc1cccc(CC(=O)Nc2ccc(C)cc2C(=O)O)c1", "false (0)"),
    ("CCOc1ccc(-c2cc(-c3cc(C(C)C)c(O)cc3C)nn2-c2ccc(S(N)(=O)=O)cc2)cc1", "true (1)"),
    ("CCOC(=O)/C(F)=C/C1CC1C(c1ccccc1)c1ccccc1 (centres undefined)", "false (0)"),
    ("Nc1nnc(CS(=O)(=O)c2ccccc2)s1", "false (0)"),
    ("O=c1c(-c2nc(-c3ccccc3)c(-c3ccccc3)[nH]2)coc2ccc(F)cc12", "false (0)"),
    ("CC(Nc1ncnc2ccc(-c3ccc4oc(N)nc4c3)cc12)c1ccccc1 (centres undefined)", "false (0)"),
    ("Cc1oc(-c2ccccc2)nc1CN[C@@H]1C[C@@H]2C[C@H]([C@H]1C)C2(C)C", "true (1)"),
    ("COc1ccc(C(=O)c2c(N)c(C#N)cn2-c2ccc([N+](=O)[O-])cc2)cc1", "false (0)"),
    ("CC(C)(C)C(=O)C1CC(C#N)=C2C=Cc3c(ccc4ccccc34)N21 (centres undefined)", "false (0)"),
    ("CCCCC[C@@H]1C/C=C(\\C)[C@@H](O)C(C)(C)C(=O)[C@@H](C)/C=C(\\C)[C@@H]2C[C@H](O)C[C@](O)(CC(=O)O1)O2", "false (0)"),
    ("COc1ccc(-c2cc(-c3ccccc3)c(C#N)c(=O)[nH]2)cc1S(N)(=O)=O", "false (0)"),
    ("Fc1ccc(F)c(CNc2nc(SCCN3CCOCC3)nc3c2cnn3CC(Cl)c2ccc(Br)cc2)c1 (centres undefined)", "false (0)"),
    ("COc1cc(C=O)ccc1OC(=O)c1cc(-c2ccc(C)cc2)n(-c2ccc(S(C)(=O)=O)cc2)n1", "false (0)"),
    ("COc1ccc(Nc2ncnc3sc4c(c23)CCN(Cc2ccccc2)C4)cc1", "false (0)"),
    ("Cc1ccc2nc(SCc3ccccc3F)n(-c3ccccc3)c(=O)c2c1", "false (0)"),
    ("O=C(Nc1ccc(Cl)c(C(F)(F)F)c1)N1CCN(c2cc(-c3cn(-c4ccccc4)nc3-c3cccc(O)c3)ccn2)CC1", "true (1)"),
    ("Clc1ccc(-c2nc3ccc(-c4nnc(SCc5ccccc5)o4)cc3[nH]2)cc1", "false (0)"),
    ("COc1cccc(NC(=O)c2ccc(NC(=O)CCl)s2)c1", "false (0)"),
]
